Tested on: MCF7 breast
Experiment: NCI-60 one-dose screen, 48 h (100 = growth as untreated, 0 = no growth, -100 = all killed)
Conditions: 10 µM unless noted
Compounds without any hit were thinned out: in the full panel of roughly 83,000, 20% have a hit.
Form field: growth (one value per entry).
Dear colleague, please return just the value in %, with no unit written.

Return reported growth; argument: C#CCn1cnc2c(Nc3cccc(NC(=O)C=C)c3)ncnc21
80.1

***
Return reported growth; argument: CCn1cc(C(=O)N/N=C/c2cccs2)c(=O)c2cc(F)c(N3CCNC(C)C3)c(F)c21 (centres undefined)
-77.4

Return reported growth; argument: COc1ccc(N2CCC(=O)NC2=S)cc1
95.2

Return reported growth; argument: O=C1c2ccc3c4ccc5c6c(ccc(c7ccc(c2c37)C(=O)N1CCC[P+](c1ccccc1)(c1ccccc1)c1ccccc1)c64)C(=O)N(CCC[P+](c1ccccc1)(c1ccccc1)c1ccccc1)C5=O
37.1

Return reported growth; argument: O=[N+]([O-])c1ccc(-c2nc(N3CCOCC3)c3c4c(sc3n2)CCCC4)cc1
73.1

Return reported growth; argument: COc1ccccc1NC(=O)Cn1cc(CN2CCN(c3ccnc4cc(Cl)ccc34)CC2)nn1
83.5

Return reported growth; argument: CO[C@H]1/C=C(/C)CCC[C@H](C)[C@H](O)[C@@H](C)C(=O)C(C)(C)[C@@H](O)CC(=O)O[C@@H]1/C(C)=C/c1csc(C)n1
20.4

Return reported growth; argument: Cc1nn(-c2ccccc2)c(Oc2ccccn2)c1-c1nc2ccccc2s1
84

Return reported growth; argument: Cc1cc2c(O)c(-c3cccc(Cl)c3)c3sc(=O)oc3c2cc1C
26.3

* * *

Tested on: EKVX NSCLC
Assay: NCI-60 one-dose screen, 48 h
Settings: 10 µM unless noted
The panel holds about 83,000 compounds, 20% with a hit somewhere; the sample as a whole holds those more often. The source made the active and inactive calls. How the source made its calls: active means growth percent below 10; inactive means the rest.
Respond using exactly one of the listed classes: active, inactive

The examples below pair each entry with its known result.
So what was the verdict on Nc1nc2c([nH]1)c1[nH]c3ccccc3c1c1[nH]c3ccccc3c21 in this test?
inactive

So what was the verdict on CCOC(=O)c1cc(C(=O)c2cc(OC)c(OC)c(OC)c2)n2ccc(-c3ccncc3)cc12 in this test?
inactive

So what was the verdict on CCc1nc2c(=O)[nH]cnc2o1 in this test?
inactive

So what was the verdict on CC(C)c1ccc(COCc2cc(CN3CCCC3)c(O)c3ncccc23)cc1 in this test?
inactive

So what was the verdict on O=C(COc1ccc(-c2nc3ccccc3[nH]2)cc1)N=Nc1c(O)[nH]c2ccc(Cl)cc12 in this test?
inactive

So what was the verdict on N#C/C(=C\c1ccc2ccccc2c1)c1cc2ccccc2[nH]1 in this test?
inactive

So what was the verdict on Cc1ccc(NC(=S)NNC(=S)NNc2ccccc2)cc1C in this test?
inactive

So what was the verdict on CCN(CC)CCOc1ccc(-c2c(-c3ccccc3)c(=O)oc3ccccc23)cc1 in this test?
inactive

***
So what was the verdict on CCCCC(=O)c1ccco1 in this test?
inactive

So what was the verdict on Cc1ccc(Cc2cnc(NC(=O)c3cc(Br)cs3)s2)cc1 in this test?
inactive

So what was the verdict on CCOC(=O)c1c(C)nc2c(c1N)CC(=O)N2Cc1cc(F)cc(Cl)c1 in this test?
inactive

* * *

System: NCI-H522 lung
Assay: NCI-60 one-dose screen, 48 h
Conditions: 10 µM unless noted
About 83,000 compounds went through this panel and 20% of them were active in at least one assay; those are over-represented in the sample as a whole. The source made the active and inactive calls. Rule for the calls: active = growth percent below 10; inactive = the rest.
Respond using exactly one of the listed classes: 1 (yes) = active, 0 (no) = inactive

So what was the verdict on COc1cc(CNC(=O)CCCC/C=C/C(C)C)ccc1OCc1nnc(Nc2ccc([N+](=O)[O-])cc2)o1 in this test?
0 (no)

So what was the verdict on O=C(CCCCCCN1CC(=O)N2[C@H](c3cc(Br)cs3)c3[nH]c4ccccc4c3C[C@H]2C1=O)NO in this test?
0 (no)

So what was the verdict on Nc1ncnc2c1N=C(c1ccc3c(c1)OCO3)CC(c1ccc([N+](=O)[O-])cc1)N2 (stereo not drawn) in this test?
0 (no)

So what was the verdict on N#Cc1cccc(F)c1 in this test?
0 (no)

So what was the verdict on O=C(/C=C/c1cn(-c2ccccc2)nc1-c1ccc([N+](=O)[O-])cc1)c1ccc(Cl)cc1 in this test?
0 (no)

***
So what was the verdict on Cc1ccc(-n2c(=S)[nH]c3sc4c(c3c2=O)CCC(=O)C4)cc1 in this test?
0 (no)

So what was the verdict on N#Cc1c(N)nnn1Cc1cc(=O)oc2c1ccc1ccccc12 in this test?
0 (no)

So what was the verdict on CCN(CC)CCCN1C(=O)c2c(c(C)c3c(oc4cc(O)ccc43)c2C)C1=O in this test?
0 (no)

So what was the verdict on Oc1c(Cl)cc(Cl)c2ccc(Cn3cc(-c4cc(F)cc(F)c4)nn3)nc12 in this test?
1 (yes)

* * *

Form field: growth (one value per entry).
Test system: EKVX NSCLC
Test: NCI-60 one-dose screen, 48 h (100 = growth as untreated, 0 = no growth, -100 = all killed)
Settings: 10 µM unless noted
The panel holds about 83,000 compounds, 20% with a hit somewhere; the sample as a whole holds those more often.
Dear colleague, please return just the value in %, with no unit written.

Examples with answers:
Return growth measured with EKVX NSCLC given this compound: CN(C)Cc1ccc(NC(=O)c2cncc(C#Cc3cnc(N)c4ncccc34)c2)cc1F
93.4

Return growth measured with EKVX NSCLC given this compound: Cc1nc(N2CCOCC2)sc1S(N)(=O)=O
101

Return growth measured with EKVX NSCLC given this compound: CCCc1cc(NC)nc(S(=O)(=O)CC)n1
104

***
Return growth measured with EKVX NSCLC given this compound: Cc1noc(C)c1C(=O)OCc1coc2ccccc2c1=O
86.9

Return growth measured with EKVX NSCLC given this compound: Cc1nnc(-n2c(O)cc(=O)n(-c3ccccc3)c2=S)nc1/C=C/c1ccc(N(C)C)cc1
66.7

Return growth measured with EKVX NSCLC given this compound: O=S(=O)(Nc1ccccc1)c1ccc(C2CC3(Cl)C(Cl)=C(Cl)C2(Cl)C3(Cl)Cl)cc1 (stereo unspecified)
36.3

* * *

Tested on: PC-3 prostate
Experiment: NCI-60 one-dose screen, 48 h (100 = growth as untreated, 0 = no growth, -100 = all killed)
Conditions: 10 µM unless noted
Compounds without any hit were thinned out: in the full panel of roughly 83,000, 20% have a hit.
Threshold check on growth: strictly below 40% is Criterion met; on or above 40% is Criterion not met.

Please let me know if COc1ccc2cc(C(=O)c3coc4ccc(O)cc34)ccc2c1 shows growth below 40%.
Criterion not met

***
Please let me know if CC(C)CCNC(=O)Cn1cccc(NC(=O)OCc2ccccc2)c1=O shows growth below 40%.
Criterion not met

Please let me know if N=C(N)c1ccc(-c2ccc(-c3ccc(Cl)cc3)s2)nc1 shows growth below 40%.
Criterion met

Please let me know if CC(=O)N1N=C(c2ccc(Nc3nc(Nc4ccc(Cl)cc4)nc(Nc4ccc(Cl)cc4)n3)cc2)CC1c1ccco1 (stereo not given) shows growth below 40%.
Criterion not met

Please let me know if Cc1cc(Cl)ccc1Nc1nc(C(F)(F)F)ccc1C(=O)N/N=C/c1ccc([N+](=O)[O-])cc1 shows growth below 40%.
Criterion met

Please let me know if Brc1ccc2[nH]cc(-c3nonc3-c3c[nH]c4ccccc34)c2c1 shows growth below 40%.
Criterion met

Please let me know if Clc1ccc(Nc2nnc(COc3ccccc3)c3ccccc23)cc1 shows growth below 40%.
Criterion met

Please let me know if CCOC(=O)c1cc(-c2ccc([N+](=O)[O-])cc2)n(-c2ccc(C(=O)O)c(O)c2)c1C shows growth below 40%.
Criterion met

Please let me know if O=C1/C(=C/c2cccs2)SC(=S)N1CCCN1CCOCC1 shows growth below 40%.
Criterion not met

Please let me know if Brc1c2c(c(Br)c3ccccc13)CCCC2 shows growth below 40%.
Criterion not met

* * *

System: SNB-19 CNS
Experiment: NCI-60 one-dose screen, 48 h
Conditions: 10 µM unless noted
This is part of a sample that, as a whole, favours compounds with a hit. Of some 83,000 tested, about 20% had one in any assay. The source made the active and inactive calls. How the source made its calls: active means growth percent below 10; inactive means the rest.
Respond using exactly one of the listed classes: active, inactive

The examples below pair each entry with its known result.
So what was the verdict on Cn1cc(-c2csc(-c3ccc(Cl)cc3)n2)c2cccnc21 in this test?
active

So what was the verdict on COc1ccc(C(c2cc(OC)c(OC)c(OC)c2)N2CCN(c3ccccc3)CC2)cc1 (stereo not given) in this test?
inactive

So what was the verdict on COc1cccc(NC(=O)Cn2cc(CN3CCN(c4ccnc5cc(Cl)ccc45)CC3)nn2)c1 in this test?
inactive

So what was the verdict on O=C(Cn1c(=O)sc2nc3ccccc3nc21)Nc1ncc(Cc2cccc(Cl)c2Cl)s1 in this test?
inactive

So what was the verdict on COC(=O)c1c2c(c(C)[n+]([O-])c1C)C(=O)C=C(NCc1ccc(OC)cc1)C2=O in this test?
active

***
So what was the verdict on CC(=O)OC[C@]12CCC(C)(C)C[C@H]1[C@@]1(O)[C@H](O)C[C@@H]3[C@@]4(C)CCCNC(C)(C)[C@@H]4CC[C@@]3(C)[C@]1(C)CC2 in this test?
inactive

So what was the verdict on O=[N+]([O-])/C(=C/C=C/c1ccccc1)c1ccccc1 in this test?
inactive

So what was the verdict on CCOC(=O)CSc1ncnc2c1c(-c1ccccc1)c(-c1ccccc1)n2-c1ccc(C)cc1 in this test?
inactive

So what was the verdict on Cc1oc(-c2ccc(Cl)cc2)nc1/C=C/C(=O)c1ccccc1 in this test?
inactive

So what was the verdict on Cn1cc(-c2nc(-c3c[nH]c4ccncc34)cs2)c2ccccc21 in this test?
inactive
